Values were extracted from patent US20260364080A1.

The compounds listed here are annotated with their pIC50.
target: Myt1 kinase (recombinant PMYT-1) (Homo sapiens, UniProt Q99640); construct: full length PMYT-1 was expressed by baculovirus in insect cells; purchased Invitrogen A30984; host or cells: insect cells (baculovirus); experiment: Myt1 kinase binding assay (LanthaScreen Eu Kinase Binding Assay); conditions: 3 nM tracer 178, 2.5 nM PMYT-1, 1 nM Eu-labeled antibody; read-out: Myt1 kinase Binding IC50
Sequence (Q99640 whole entry): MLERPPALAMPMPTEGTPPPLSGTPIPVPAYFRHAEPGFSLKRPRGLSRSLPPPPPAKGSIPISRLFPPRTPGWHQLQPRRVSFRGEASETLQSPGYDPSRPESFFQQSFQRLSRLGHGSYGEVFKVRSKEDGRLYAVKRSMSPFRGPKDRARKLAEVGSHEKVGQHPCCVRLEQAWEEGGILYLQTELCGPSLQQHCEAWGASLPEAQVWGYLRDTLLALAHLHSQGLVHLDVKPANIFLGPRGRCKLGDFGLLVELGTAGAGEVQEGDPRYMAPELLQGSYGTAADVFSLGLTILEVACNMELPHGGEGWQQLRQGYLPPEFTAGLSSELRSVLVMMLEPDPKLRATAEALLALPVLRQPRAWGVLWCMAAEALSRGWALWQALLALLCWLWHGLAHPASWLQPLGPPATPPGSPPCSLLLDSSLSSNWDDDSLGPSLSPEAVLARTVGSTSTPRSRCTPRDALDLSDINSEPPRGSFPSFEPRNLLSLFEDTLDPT
pIC50: −log10 of the molar value.

Solved cases below.
pIC50 for C=CCn1c(=O)c2cnc(Nc3ccc4c(cnn4C)c3)nc2n1-c1cccc(O[C@H]2CCNC2)n1 [Compound 100] is > 7.70

pIC50 for C=CCn1c(=O)c2cnc(Nc3ccc(C#N)cc3)nc2n1-c1cccc(OC2CCN(C)CC2)n1 [Compound 301] is 7.00 to 7.70

pIC50 for Cn1c(=O)c2cnc(Nc3ccc(Cl)cc3)nc2n1-c1cccc(OC2CCNCC2)n1 [Compound 153] is 7.00 to 7.70

pIC50 for C=CCn1c(=O)c2cnc(Nc3ccc4sncc4c3)nc2n1-c1cccc(OC2CCNCC2)n1 [Compound 228] is > 7.70

Next:
pIC50 for Cc1cc(Nc2ncc3c(=O)n(C)n(-c4cccc(OC5CCNCC5)n4)c3n2)ccc1F [Compound 154] is 6.30 to 7.00

pIC50 for C=CCn1c(=O)c2cnc(Nc3ccnc(OC)c3)nc2n1-c1cccc(OC2CCN(C)CC2)n1 [Compound 263] is > 7.70

pIC50 for CCn1c(=O)c2cnc(Nc3ccc4c(c3)ncn4C)nc2n1-c1cccc(OC2CCN(C)CC2)n1 [Compound 235] is 7.00 to 7.70
